target: Epidermal growth factor receptor (Homo sapiens); details: ER22; 20 uM
Description: Inhibition of EGF-dependent DNA synthesis in EGF-receptor expressing ER22 cells at 20 uM
experimental_readout: inhibition (%)

{"smiles_str": "COC(=O)c1cc(/N=C/c2cccc(O)c2)ccc1O", "measured_on": "Epidermal growth factor receptor (Homo sapiens)", "unit_of_measurement": "%", "inhibition": 20}

[a] COC(=O)c1cc(/N=C/c2ccc(O)cc2O)ccc1O
[b] COC(=O)c1cc(NCc2cc(OC)ccc2OC)ccc1O
[c] COC(=O)c1cc(/N=C/c2ccc(O)c(O)c2)ccc1O
Falling order of inhibition, please. Response format: the labels, sorted as the prompt asks. a, c, b
(a: 65%, c: 37%, b: 18%)

###

assay: Inhibition of tyrosine kinase activity in ER 22 membrane fraction by competition with the RRSrc peptide using [32P]-gamma ATP as radioligand; format: cell membranes
experimental_readout: IC50 (µM)

Would you please look over these solved cases?
{"smiles_str": "COC(=O)c1cc(/N=C/c2ccc(O)c(O)c2)ccc1O", "IC50 / µM": 10}
{"smiles_str": "COC(=O)c1cc(NCc2cc(O)ccc2O)ccc1O", "IC50 / µM": 0.6}
{"smiles_str": "COC(=O)c1cc(NCc2cc(O)ccc2O)ccc1OC", "IC50 / µM": 5}

[I] COC(=O)c1ccc(NCc2cc(O)ccc2O)cc1O
[II] COC(=O)c1cccc(NCc2cc(O)ccc2O)c1
[III] COC(=O)c1cc(/N=C/c2cc(O)ccc2O)ccc1O
[IV] O=C(O)c1cc(NCc2ccccc2O)ccc1O
Falling order of IC50, please. Response format: the labels, sorted as the prompt asks. III, IV, II, I

[P] O=C(O)c1cccc(NCc2cc(O)ccc2O)c1
[Q] O=C(O)c1cc(/N=C/c2cc(O)ccc2O)ccc1O
Between P and Q , which one shows the smaller IC50 number? Answer format: the label of the selected item. P

###

experiment: Inhibition of tyrosine kinase activity in ER 22 membrane fraction by competition with the RRSrc peptide using [32P]-gamma ATP as radioligand; format: cell membranes
experimental_readout: IC50

{"smiles_str": "COC(=O)c1cc(/N=C/c2ccc(O)cc2)ccc1O", "experimental_readout": "IC50", "value_reported": "> 10 µM"}
{"smiles_str": "O=C(O)c1cc(/N=C/c2ccccc2O)ccc1O", "experimental_readout": "IC50", "value_reported": "> 100 µM"}

Quick check: IC50 of COC(=O)c1cc(/N=C/c2ccccc2O)ccc1O ? > 100 µM

Lookup COC(=O)c1ccc(/N=C/c2cc(O)ccc2O)cc1O > 10 µM

###

assay: Inhibition of tyrosine kinase activity in ER 22 membrane fraction by competition with the RRSrc peptide using [32P]-gamma ATP as radioligand; type: cell membranes
pIC50: −log10 of the molar value.
experimental_readout: pIC50

Would you please look over these solved cases?
{"smiles_str": "COC(=O)c1cc(NCc2ccccc2O)ccc1O", "pIC50": 4.35}
{"smiles_str": "O=C(O)c1cccc(/N=C/c2cc(O)ccc2O)c1", "pIC50": "< 5.00"}
{"smiles_str": "COC(=O)c1cc(/N=C/c2cc(O)ccc2O)ccc1OC", "pIC50": "< 4.00"}
{"smiles_str": "COC(=O)c1cc(/N=C/c2ccc(O)cc2O)ccc1O", "pIC50": "< 4.00"}
{"smiles_str": "COC(=O)c1cc(/N=C/c2cccc(O)c2)ccc1O", "pIC50": "< 4.00"}

Quick check: pIC50 of COC(=O)c1cc(NCc2cc(OC)ccc2OC)ccc1O ? < 4.00

Lookup COC(=O)c1cc(/N=C/c2cc(OC)ccc2OC)ccc1O < 5.00
